Data provenance is ChEMBL document CHEMBL3352204.

- Test system: A549
- assay.protocol: Cytotoxicity against human A549 cells assessed as inhibition of cell growth after 72 hrs by MTT assay
- Assay type: functional, cell-based
- measurement.parameters: A549, 72 h
pIC50: −log10 of the molar value.
Hi, to clarify the labels: MET covers pIC50 from 5 upward, NOT MET covers anything below 5.

In [3]: df
Out[3]:
                                   compound  class_name
0  C=C1CC[C@H]2[C@](C)(COC(C)=O)CCC[C@]2(C)[C@H]1C[C@]12O[C@H]1[C@H](O)C(CO)=CC2=O     NOT MET
1  C=C1CC[C@H]2[C@](C)(CO)CCC[C@]2(C)[C@H]1C[C@]12O[C@H]1[C@@H](O)C(CO)=CC2=O     NOT MET
2  C=C1CC[C@H]2[C@](C)(CO)CCC[C@]2(C)[C@H]1CC1=C(O)C(=O)[C@](O)(CO)[C@H](O)[C@H]1O     NOT MET
3  COc1cccc2c1C(=O)c1c(O)c3c(c(O)c1C2=O)C[C@@](O)(C(=O)CO)C[C@@H]3O[C@H]1C[C@H](N)[C@H](O)[C@H](C)O1 [DOXORUBICIN]         MET
4  C=C1CC[C@H]2[C@](C)(CO)CCC[C@]2(C)[C@H]1C[C@@]12O[C@@H]1[C@@H](O)C(CO)=CC2=O     NOT MET
5  C=C1CC[C@H]2[C@](C)(COC(C)=O)CCC[C@]2(C)[C@H]1C[C@@]12O[C@@H]1[C@@H](O)C(CO)=CC2=O     NOT MET
6  C[C@@]1(CO)CCC[C@]2(C)[C@H]3C[C@@]45O[C@@H]4C(=O)[C@]4(CO)O[C@@H]4[C@]5(O)CC3=CC[C@@H]12 [HYMENOPSIN B]         MET
